# IC50 (µM) for cellular ROS level induced by DAMP annotations
target: oxidized HSA protein (UniProt P02768 25-609, oxidized with 8 mM NaClO in the dark for 30 min (which residues are oxidized is not stated)); assay: cell-based or functional assay
Sequence (P02768 25-609): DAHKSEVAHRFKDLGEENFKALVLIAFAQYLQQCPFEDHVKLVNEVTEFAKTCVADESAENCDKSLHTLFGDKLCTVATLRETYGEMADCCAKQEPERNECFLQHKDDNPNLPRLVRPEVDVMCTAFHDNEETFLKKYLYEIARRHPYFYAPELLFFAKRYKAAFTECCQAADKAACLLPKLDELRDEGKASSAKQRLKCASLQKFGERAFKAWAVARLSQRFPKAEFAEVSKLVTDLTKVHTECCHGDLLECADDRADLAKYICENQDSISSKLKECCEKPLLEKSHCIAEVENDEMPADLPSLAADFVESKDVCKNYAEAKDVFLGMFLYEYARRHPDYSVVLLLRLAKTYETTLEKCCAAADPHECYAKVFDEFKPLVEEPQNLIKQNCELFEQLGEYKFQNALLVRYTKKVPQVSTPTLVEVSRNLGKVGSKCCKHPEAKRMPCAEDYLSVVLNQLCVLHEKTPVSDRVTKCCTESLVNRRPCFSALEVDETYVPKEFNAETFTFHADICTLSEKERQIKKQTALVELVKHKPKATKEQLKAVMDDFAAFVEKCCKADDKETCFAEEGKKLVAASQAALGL
State the answer as a number, implicitly in µM.

Example entries begin here.
CF-38 (SEQ ID NO: 51) (peptide) STKKQPVDLGLLEEDDEFEEFPAESWAGLDEDESAHVWEDNWDDDNVTSDFSNQLRATVLLMILVCETPYGCYVLHQKGRMCSAFLCC | 4.12
CF-40 (SEQ ID NO: 53) (peptide) SEKKQPVDLGLLEEDDEFEEFPAEDWAGLDEDEDAHVWEDNWDDDNVTSDFSNQLRATVLLMILVCETPYGCYVLHQKGRMCSAFLCC | 5.87
CF-43 (SEQ ID NO: 54) (peptide) SEKKQPVDLGLLEEDDEFEEFPAEDWAGLDEDEDAHVWEDNWDDDNVTSDFSNQLRATVLLMILVCETPYGCYVLHQKGRMCS | 6.13

Proceed to the following item.
The measured IC50 (µM) for cellular ROS level induced by DAMP associated with CF-39 (SEQ ID NO: 52) (peptide) SEKKQPVDLGLLEEDDEFEEFPAEDWAGLDEDESAHVWEDNWDDDNVTSDFSNQLRATVLLMILVCETPYGCYVLHQKGRMCSAFLCC reads 3.91
